target entity: T1, CD47 protein (Acrobiosystems, cat #CD7-HA2E9) (UniProt Q08722 19-139)
T1 construct: Bought recombinant protein coated on the ELISA plate at 100 ng/well; also called CD47 antigen; CD47 peptide
T1 sequence (Q08722 19-139 limits assumed): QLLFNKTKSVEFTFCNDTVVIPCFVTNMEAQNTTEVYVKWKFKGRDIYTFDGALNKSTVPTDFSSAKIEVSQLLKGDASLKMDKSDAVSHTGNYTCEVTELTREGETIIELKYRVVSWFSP
experiment: ELISA, CD47 protein coated 100 ng/well, 0.8 µg antibody per well
Kind request: treat 0.1 OD450 as inclusive, so OD450 measurements at 0.1 OD450 or higher is TRUE, anything lower is FALSE.

Answered cases to consult:
| binder | group |
| --- | --- |
| Hu3A5(V11) antibody (antibody, V domains shown) VH: EVQLVQSGSELKKPGASVKVSCKASGYTFTSYWMHWMRQAPGQGLEWIGVIDPSDSYTSYNQGFTGRFVLSVDTSVSTAYLQISSLKAEDTAVYYCARGGKRAMDYWGQGTTVTVSS VL: DVVMTQSPDSLAVSLGERATINCKSSQSLVHSNGNTYLHWYQQKPGQPPKLLIYKVSNRFSGVPDRFSGSGSGTDFTLTISSLQAEDVAVYFCSQSTHVPFTFGGGTKLEIK | TRUE |
| Hu3A5(V13) antibody (antibody, V domains shown) VH: QVQLVQSGSELKKPGASVKVSCKASGYTFTSYWMNWVRQAPGQGLEWMGVIDPSDSYTSYNQGFTGRFVFSVDTSVSTAYLQISSLKAEDTAVYYCARGGKRAMDYWGQGTTVTVSS VL: DVVMTQSPLSLPVTLGQPASISCRSSQSLVHSNGNTYLHWFQQRPGQSPRLLIYKVSNRFSGVPDRFSGSGSGTDFTLKISRVEAEDVGVYFCSQSTHVPFTFGGGTKLEIK | FALSE |

Input: Is OD450 measurements for Hu3A5 (V5) antibody (antibody, V domains shown) VH: QVQLVQSGAEVKKPGASVKVSCKASGYTFTSYWMHWVRQAPGQGLEWMGVIDPSDSYTSYNQKFQGRVTMTVDTSTSTAYMELSSLRSEDTAVYYCARGGKRAMDYWGQGTTVTVSS VL: DVVMTQSPLSLPVTLGQPASISCRSSQSLVHSNGNTYLHWFQQRPGQSPRLLIYKVSNRFSGVPDRFSGSGSGTDFTLKISRVEAEDVGVYFCSQSTHVPFTFGGGTKLEIK at or above 0.1 OD450?
Output: TRUE

Input: Assess whether reported OD450 measurements for Hu3A5 (V7) antibody (antibody, V domains shown) VH: QVQLVQSGAEVKKPGASVKVSCKASGYTFTSYWMHWVRQAPGQGLEWMGVIDPSDSYTSYNQKFQGRVTMTVDTSTSTAYMELSSLRSEDTAVYYCARGGKRAMDYWGQGTTVTVSS VL: DVVMTQSPDSLAVSLGERATINCKSSQSLVHSNGNTYLHWYQQKPGQPPKLLIYKVSNRFSGVPDRFSGSGSGTDFTLTISSLQAEDVAVYFCSQSTHVPFTFGGGTKLEIK sits at 0.1 OD450 or higher.
Output: TRUE

Input: Does the binder Hu3A5(V14) antibody (antibody, V domains shown) VH: QVQLVQSGSELKKPGASVKVSCKASGYTFTSYWMNWVRQAPGQGLEWMGVIDPSDSYTSYNQGFTGRFVFSVDTSVSTAYLQISSLKAEDTAVYYCARGGKRAMDYWGQGTTVTVSS VL: DVVMTQSPLSLPVTLGQPASISCRSSQSLVHSNGNTYLHWFQQRPGQSPRLLIYKVSNRFSGVPDRFSGSGSGTDFTLKISRVEAEDVGVYYCSQSTHVPFTFGGGTKLEIK have recorded OD450 measurements that is 0.1 OD450 or more?
Output: TRUE
